Could you please report measured pIC50 for the items listed next?
target: N-type Ca2+ channels in IMR-32 cells (Homo sapiens); assay: Inhibition of N-type calcium flux in IMR-32 cells (Indo-1 fluorescence, nitrendipine present); conditions: IMR-32 cells, 5 μM nitrendipine, K+ depolarization
Sequence (Q00975 whole entry): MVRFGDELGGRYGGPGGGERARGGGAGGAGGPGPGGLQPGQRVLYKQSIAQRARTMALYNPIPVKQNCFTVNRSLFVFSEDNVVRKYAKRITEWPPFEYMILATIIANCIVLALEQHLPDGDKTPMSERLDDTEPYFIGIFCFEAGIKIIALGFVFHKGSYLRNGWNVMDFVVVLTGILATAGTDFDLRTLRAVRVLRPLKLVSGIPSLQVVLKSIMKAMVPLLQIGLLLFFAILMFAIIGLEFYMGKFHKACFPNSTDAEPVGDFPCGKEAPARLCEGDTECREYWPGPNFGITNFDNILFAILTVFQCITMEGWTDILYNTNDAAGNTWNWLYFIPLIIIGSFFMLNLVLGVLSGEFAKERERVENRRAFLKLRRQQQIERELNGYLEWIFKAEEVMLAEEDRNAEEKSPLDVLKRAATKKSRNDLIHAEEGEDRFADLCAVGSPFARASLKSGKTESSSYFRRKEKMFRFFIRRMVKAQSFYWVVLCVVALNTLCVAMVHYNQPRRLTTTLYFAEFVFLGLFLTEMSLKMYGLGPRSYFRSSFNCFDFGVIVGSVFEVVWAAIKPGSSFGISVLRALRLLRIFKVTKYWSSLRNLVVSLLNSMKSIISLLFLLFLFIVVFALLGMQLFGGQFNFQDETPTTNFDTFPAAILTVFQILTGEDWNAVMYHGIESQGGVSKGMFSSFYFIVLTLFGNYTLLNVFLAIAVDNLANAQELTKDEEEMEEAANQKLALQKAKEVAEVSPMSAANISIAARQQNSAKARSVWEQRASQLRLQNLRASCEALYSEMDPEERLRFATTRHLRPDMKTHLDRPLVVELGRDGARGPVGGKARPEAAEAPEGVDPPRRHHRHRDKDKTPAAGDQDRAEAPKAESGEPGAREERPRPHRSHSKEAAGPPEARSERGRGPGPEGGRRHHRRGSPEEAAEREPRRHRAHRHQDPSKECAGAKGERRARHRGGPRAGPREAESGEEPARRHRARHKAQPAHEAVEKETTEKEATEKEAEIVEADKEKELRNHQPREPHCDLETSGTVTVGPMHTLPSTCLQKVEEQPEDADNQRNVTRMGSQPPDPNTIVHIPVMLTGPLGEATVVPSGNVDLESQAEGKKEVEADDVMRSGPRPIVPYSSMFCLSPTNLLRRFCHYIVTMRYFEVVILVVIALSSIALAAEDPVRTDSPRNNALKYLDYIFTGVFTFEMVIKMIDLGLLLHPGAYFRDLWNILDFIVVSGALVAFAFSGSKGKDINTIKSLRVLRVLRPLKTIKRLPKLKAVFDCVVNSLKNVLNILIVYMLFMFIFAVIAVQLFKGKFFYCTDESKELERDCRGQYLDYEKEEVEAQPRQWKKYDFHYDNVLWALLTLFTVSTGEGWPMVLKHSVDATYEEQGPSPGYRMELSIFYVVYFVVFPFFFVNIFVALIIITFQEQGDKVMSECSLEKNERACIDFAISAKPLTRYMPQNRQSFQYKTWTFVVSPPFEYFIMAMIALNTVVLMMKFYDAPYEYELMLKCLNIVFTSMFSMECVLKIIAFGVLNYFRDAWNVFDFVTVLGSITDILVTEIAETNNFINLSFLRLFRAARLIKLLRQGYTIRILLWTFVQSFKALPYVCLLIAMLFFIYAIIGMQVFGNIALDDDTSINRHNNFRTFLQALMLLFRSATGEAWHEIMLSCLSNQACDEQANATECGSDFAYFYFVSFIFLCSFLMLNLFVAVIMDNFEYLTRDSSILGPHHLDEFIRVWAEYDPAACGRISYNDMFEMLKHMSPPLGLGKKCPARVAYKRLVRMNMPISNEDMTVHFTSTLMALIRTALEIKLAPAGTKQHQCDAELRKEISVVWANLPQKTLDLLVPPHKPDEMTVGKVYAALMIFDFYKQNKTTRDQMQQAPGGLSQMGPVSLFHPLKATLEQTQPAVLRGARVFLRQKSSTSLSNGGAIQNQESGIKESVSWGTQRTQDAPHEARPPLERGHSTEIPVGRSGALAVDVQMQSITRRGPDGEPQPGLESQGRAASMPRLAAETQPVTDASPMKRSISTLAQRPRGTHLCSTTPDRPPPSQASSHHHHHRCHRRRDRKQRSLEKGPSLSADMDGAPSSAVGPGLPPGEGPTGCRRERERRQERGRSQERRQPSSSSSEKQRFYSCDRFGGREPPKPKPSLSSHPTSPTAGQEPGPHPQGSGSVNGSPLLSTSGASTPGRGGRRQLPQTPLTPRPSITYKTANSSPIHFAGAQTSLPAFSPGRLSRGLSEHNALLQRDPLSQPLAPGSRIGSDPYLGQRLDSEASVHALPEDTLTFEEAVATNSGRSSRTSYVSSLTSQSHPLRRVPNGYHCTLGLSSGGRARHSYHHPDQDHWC
Sequence (P54289 25-956 partner limits assumed): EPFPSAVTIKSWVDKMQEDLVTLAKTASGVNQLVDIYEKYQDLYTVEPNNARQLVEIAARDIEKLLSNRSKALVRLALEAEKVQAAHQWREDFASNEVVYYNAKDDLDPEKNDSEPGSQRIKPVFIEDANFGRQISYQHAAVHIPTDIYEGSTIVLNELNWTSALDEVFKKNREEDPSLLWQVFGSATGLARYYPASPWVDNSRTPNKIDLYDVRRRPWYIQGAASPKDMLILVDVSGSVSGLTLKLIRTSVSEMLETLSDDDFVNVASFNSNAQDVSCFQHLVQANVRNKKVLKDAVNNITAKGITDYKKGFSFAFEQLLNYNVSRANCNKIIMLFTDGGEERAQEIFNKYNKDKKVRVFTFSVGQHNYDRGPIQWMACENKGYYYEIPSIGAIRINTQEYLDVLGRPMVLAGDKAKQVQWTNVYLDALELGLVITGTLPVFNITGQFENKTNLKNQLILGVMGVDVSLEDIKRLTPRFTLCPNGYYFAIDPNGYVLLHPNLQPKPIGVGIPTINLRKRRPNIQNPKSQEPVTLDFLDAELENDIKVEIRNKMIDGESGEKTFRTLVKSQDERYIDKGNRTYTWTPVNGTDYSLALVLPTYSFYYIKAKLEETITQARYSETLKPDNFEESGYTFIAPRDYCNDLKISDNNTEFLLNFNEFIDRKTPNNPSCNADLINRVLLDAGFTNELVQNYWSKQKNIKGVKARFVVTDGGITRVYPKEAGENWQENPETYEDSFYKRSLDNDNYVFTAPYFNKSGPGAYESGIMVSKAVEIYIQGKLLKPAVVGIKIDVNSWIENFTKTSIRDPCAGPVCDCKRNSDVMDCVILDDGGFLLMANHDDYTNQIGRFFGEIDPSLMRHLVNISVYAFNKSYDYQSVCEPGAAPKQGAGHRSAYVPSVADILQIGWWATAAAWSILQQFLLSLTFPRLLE
Sequence (P54289 957-1103 partner limits assumed): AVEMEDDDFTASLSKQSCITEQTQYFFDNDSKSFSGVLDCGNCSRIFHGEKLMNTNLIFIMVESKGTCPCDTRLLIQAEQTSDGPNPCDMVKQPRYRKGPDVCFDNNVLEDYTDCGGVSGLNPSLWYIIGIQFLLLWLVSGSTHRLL
Sequence (P54284 whole entry partner): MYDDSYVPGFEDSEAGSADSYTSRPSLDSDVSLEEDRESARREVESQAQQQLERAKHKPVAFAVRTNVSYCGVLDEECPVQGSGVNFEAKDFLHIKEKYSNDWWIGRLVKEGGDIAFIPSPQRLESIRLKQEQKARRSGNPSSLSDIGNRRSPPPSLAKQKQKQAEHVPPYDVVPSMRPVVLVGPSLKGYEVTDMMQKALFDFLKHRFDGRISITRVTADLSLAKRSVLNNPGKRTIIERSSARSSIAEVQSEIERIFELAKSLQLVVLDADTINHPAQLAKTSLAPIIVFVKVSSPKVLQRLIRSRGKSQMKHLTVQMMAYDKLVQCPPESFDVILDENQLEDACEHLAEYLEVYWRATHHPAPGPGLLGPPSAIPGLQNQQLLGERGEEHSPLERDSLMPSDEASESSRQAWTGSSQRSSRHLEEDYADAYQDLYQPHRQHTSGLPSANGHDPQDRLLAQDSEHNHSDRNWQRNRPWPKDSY
Give bare numbers, as −log10 of the molar value.

# map each molecule to its pIC50
1. COc1ccc(COc2ccc(C[C@H](NC(=O)[C@H](CC(C)C)NC(=O)N3CCCCCC3)C(=O)OC(C)(C)C)cc2)cc1
2. CC(C)C[C@H](NC(=O)N1CCCCCC1)C(=O)N[C@@H](Cc1ccc(OCc2ccccc2)cc1)C(=O)N1CCC(Cc2ccccc2)CC1

a:
6.09
6.00

# map each molecule to its pIC50
1. CC(C)C[C@H](NS(=O)(=O)N1CCCCC1)C(=O)N[C@@H](Cc1ccc(OCc2ccccc2)cc1)C(=O)OC(C)(C)C
2. CC(C)CC(NC(=O)N1CCCCCC1)C(=O)NC(Cc1ccc(OCc2ccccc2)cc1)C(=O)N1CCCC(C)C1 (stereo not drawn)
3. CC(C)C[C@@H](NC(=O)N1CCCCCC1)C(=O)N[C@@H](Cc1ccc(OCc2ccccc2)cc1)C(=O)OC(C)(C)C
4. CC(C)C[C@H](NS(=O)(=O)N1CCOCC1)C(=O)N[C@@H](Cc1ccc(OCc2ccccc2)cc1)C(=O)OC(C)(C)C
5. CCN(CC)C(=O)C1CCCN(C(=O)C(Cc2ccc(OCc3ccccc3)cc2)NC(=O)C(CC(C)C)NC(=O)N2CCCCCC2)C1 (stereo not drawn) [Example 189]

a:
1. 6.10
2. 6.05
3. 6.00
4. 6.02
5. 6.03

# map each molecule to its pIC50
1. CC(C)C[C@H](NC(=O)N1CCCCCC1)C(=O)N[C@@H](Cc1ccc(OCc2ccccc2)cc1)C(=O)N1CCN(c2ccc(F)cc2)CC1 (relative stereo)
2. CC(C)C[C@H](NC(=O)N1CCCCCC1)C(=O)N[C@@H](Cc1ccc(OCc2ccccc2)cc1)C(=O)N1CCOCC1

a:
[6.12, 5.89]

Data provenance: patent US6423689B1
